measurement target: T1, polypeptide GC3pep (human)
T1 construct: also called membrane proximal polypeptide GC3pep
T1 peptide: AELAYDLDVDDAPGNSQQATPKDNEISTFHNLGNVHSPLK
experiment: ELISA, GC3pep coated, antibody 100 nM;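 further: detection with an HRP-conjugated secondary antibody and TMB substrate, color reaction stopped with HCl before absorbance reading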
What OD450 nm was measured for each of the following?
Numbers only; they are read as OD450 nm.

Problem: OD450 nm lookup needed for F4.13.7 (antibody, human IgG1, kappa, V domains shown, human-murine chimeric antibody) VH: QVQLQQPGAELVKPGASVKLSCKASGYTFTNNWVHWVKQRPGQGLEWTGMIHPDSGSTIYNEKFQSKATLTVDKSSSTAYMQLSSLTSEDSAVYYCARGYYDSSSYYAMDYWGQGTSVTVSS VL: NIQMTQTTSSLSASLGDRVTISCSASQGIFNYLNWYQQKPDGTVKLLIYYTSSLHSGVPSRFSGSGSGTDYSLTISNLEPEDIATYYCQQYSKLPWTFGGGTKLEIKR , thanks.
Solution: 0.06

Problem: Recorded OD450 nm for F1.153.1 (antibody, human IgG1, kappa, V domains shown, human-murine chimeric antibody) VH: QIQLVQSGPELKKPGETVKISCKASGYTFTTAGMQWVQKMPGKGFKWIGWINTHSGEPQYAEDFKGRFAFSLETSASTAYLQISNLKNEDTATYFCARSFYYHGSSFFYFDYWGQGTTLTVSS VL: DIVMTQSQKFMSTTVGDRVSITCKASQNVGTAVAWYQQKPGQSPKLLIYSASNRYTGVPDRFTGSGSGADFTLTISNMQSEDLADYFCQQYSRYPLTFGAGTKLELKR , please?
Solution: 0.11

Problem: Requested field: OD450 nm. Item: F1.2.14 (antibody, human IgG1, kappa, V domains shown, human-murine chimeric antibody) VH: RVQLQQSGAELVKPGASVRMSCKASGYTFTAYSIEWMKQNLGKSLEWIGNFRPYNDDTKYNENFKGRATLTVEKSSATVYLELSRLTSDDSAVYYCARSGPTDYFDYWGQGTTLIVSS VL: DIQMTQSPASLSASVGETVTITCRASDNIYSYLAWYQQKQGQSPQLLVYNAKTLAEGVPSRFSGSGSVTQFSLKIISLQPEDFGTYYCQHHFGTPRTFGGGTKLEIKR
Solution: 0.05

Recorded values, source patent US20260116991A1.
